system.under.test: Recombinant human TYK2 catalytic domain (Homo sapiens, UniProt P29597)
Construct: Recombinant human TYK2 catalytic domain (amino acids 871-1187; catalog number 08-147); purchased Carna biosciences 08-147
Sequence (P29597 871-1187): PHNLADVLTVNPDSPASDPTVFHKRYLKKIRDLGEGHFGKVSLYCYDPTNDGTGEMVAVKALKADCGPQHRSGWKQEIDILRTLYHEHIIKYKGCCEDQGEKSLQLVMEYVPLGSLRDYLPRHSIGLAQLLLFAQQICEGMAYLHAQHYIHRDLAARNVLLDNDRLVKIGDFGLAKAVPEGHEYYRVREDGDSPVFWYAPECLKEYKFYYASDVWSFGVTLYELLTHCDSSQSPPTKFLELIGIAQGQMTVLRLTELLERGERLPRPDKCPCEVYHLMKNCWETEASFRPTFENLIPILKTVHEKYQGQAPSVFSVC
assay.overview: TYK2 inhibition assay
Type: biochemical
measurement.setup: Comparative Compounds (Table XII)
Measured IC50, listed per entry.

- molecule: "CN(c1cc2c(cn1)ncn2C)c1ccc(C#N)cc1F [D, reference compound]"
  IC50: "> 500 nM"

// moving on: another record for IC50
Tested system Recombinant human TYK2 catalytic domain (Homo sapiens, UniProt P29597); IC50 recorded for CN(c1ccc2ncn(C)c2c1)c1ccc(C#N)cc1F [C, reference compound] was > 500 nM

----------
Measured IC50, listed per entry.
system.under.test: Recombinant human JAK3 catalytic domain (Homo sapiens, UniProt P52333)
Construct: Recombinant human JAK3 catalytic domain (amino acids 781-1124; catalog number PV3855); purchased Invitrogen PV3855
Sequence (P52333 781-1124): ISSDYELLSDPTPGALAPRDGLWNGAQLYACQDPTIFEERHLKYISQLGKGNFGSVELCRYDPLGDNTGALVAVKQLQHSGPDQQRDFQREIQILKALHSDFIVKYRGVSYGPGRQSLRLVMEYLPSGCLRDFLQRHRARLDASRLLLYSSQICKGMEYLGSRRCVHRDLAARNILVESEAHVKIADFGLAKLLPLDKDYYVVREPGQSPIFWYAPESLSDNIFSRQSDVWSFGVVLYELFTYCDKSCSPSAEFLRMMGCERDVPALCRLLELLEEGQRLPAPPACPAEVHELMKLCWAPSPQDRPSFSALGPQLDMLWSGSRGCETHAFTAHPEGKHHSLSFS
assay.overview: JAK3 inhibition assay
Type: biochemical
measurement.setup: Illustrative Compounds of the invention (Table IX)

- structure: "Cc1cc(C#N)ncc1Oc1cc(N)c2ncn(C)c2c1"
  obs.value: "> 500 nM"

In plain terms, `Cc1cc(F)ncc1N(C)c1cc(NC(=O)[C@H]2C[C@H]2F)c2ncn(C)c2c1` has a documented IC50 of 100 to 500 nM

In plain terms, `Cc1cc(C#N)ncc1Oc1cc(N(C)C)c2ncn(C)c2c1` has a documented IC50 of > 500 nM

In plain terms, `CCc1cc(C(N)=O)ncc1N(C)c1cc(NC(=O)[C@H]2C[C@H]2F)c2ncn(C)c2c1` has a documented IC50 of 100 to 500 nM

In plain terms, `CN(c1cc(NC(=O)[C@H]2C[C@H]2F)c2ncn(C)c2c1)c1ccc(F)nc1F` has a documented IC50 of > 500 nM

In plain terms, `Cc1cc(C#N)ncc1Oc1cc(NC(=O)N2CCOCC2)c2ncn(C)c2c1` has a documented IC50 of > 500 nM

In plain terms, `Cc1cc(C#N)ncc1Oc1cc(NC(=O)N2CC(O)C2)c2ncn(C)c2c1` has a documented IC50 of > 500 nM

In plain terms, `CNc1cc(Oc2cnc(C#N)cc2C)cc2c1ncn2C` has a documented IC50 of > 500 nM

In plain terms, `CCc1cc(C#N)ncc1N(C)c1cc(NC(=O)C2CC2)c2ncn(C)c2c1` has a documented IC50 of 50 to 100 nM

----------
system.under.test: Recombinant human JAK3 catalytic domain (Homo sapiens)
Construct: Recombinant human JAK3 catalytic domain (amino acids 781-1124; catalog number PV3855); purchased Invitrogen PV3855
assay.overview: JAK3 inhibition assay
Type: biochemical
measurement.setup: Illustrative Compounds of the invention (Table IX)
Measured IC50, listed per entry.

- compound: "CN(c1cc(NC(=O)[C@H]2C[C@H]2F)c2ncn(C)c2c1)c1ccc(S(C)(=O)=O)cc1F [Cpd 17]"
  system.under.test: "Recombinant human JAK3 catalytic domain (Homo sapiens)"
  parameter: "IC50"
  obs.value: "> 500 nM"
- compound: "Cc1cc(S(C)(=O)=O)ccc1N(C)c1cc(NC(=O)[C@H]2C[C@H]2F)c2ncn(C)c2c1 [Cpd 26]"
  system.under.test: "Recombinant human JAK3 catalytic domain (Homo sapiens)"
  parameter: "IC50"
  obs.value: "100 to 500 nM"
- compound: "Cc1cc(C#N)ncc1N(C)c1cc(NC(=O)[C@H]2C[C@H]2F)c2ncn(C)c2c1 [Cpd 9]"
  system.under.test: "Recombinant human JAK3 catalytic domain (Homo sapiens)"
  parameter: "IC50"
  obs.value: "100 to 500 nM"

In plain terms, Cc1cc(S(C)(=O)=O)cc(F)c1N(C)c1cc(NC(=O)C2CC2)c2ncn(C)c2c1 [Cpd 19] has a documented IC50 of 50 to 100 nM

In plain terms, `CNC(=O)Nc1cc(Oc2cnc(C#N)cc2C)cc2c1ncn2C` has a documented IC50 of 100 to 500 nM

In plain terms, Cc1cc(S(C)(=O)=O)cc(F)c1N(C)c1cc(NC(=O)[C@H]2C[C@H]2F)c2ncn(C)c2c1 [Cpd 16] has a documented IC50 of 50 to 100 nM

In plain terms, Cc1cc(C#N)ncc1Oc1cc(NC(=O)[C@H]2C[C@H]2F)c2ncn(C)c2c1 [Cpd 20] has a documented IC50 of > 500 nM

In plain terms, CCc1cc(C#N)cc(F)c1N(C)c1cc(NC(=O)C2CC2)c2ncn(C)c2c1 [Cpd 3] has a documented IC50 of 0.1 to 50 nM

In plain terms, CCc1cc(C#N)cc(F)c1N(C)c1cc(NC(=O)[C@@H]2C[C@@H]2F)c2ncn(C)c2c1 (racemic) [Cpd 7] has a documented IC50 of 0.1 to 50 nM

In plain terms, CCc1cc(C#N)cc(F)c1N(C)c1cc(NC(=O)OC)c2ncn(C)c2c1 [Cpd 5] has a documented IC50 of 50 to 100 nM

In plain terms, CCc1cc(C(N)=O)ncc1N(C)c1cc(NC(=O)C2CC2)c2ncn(C)c2c1 [Cpd 24] has a documented IC50 of 100 to 500 nM

In plain terms, CCc1cc(S(C)(=O)=O)ncc1Oc1cc(NC(=O)C2CC2)c2ncn(C)c2c1 [Cpd 29] has a documented IC50 of > 500 nM

----------
system.under.test: Recombinant human JAK3 catalytic domain (Homo sapiens)
Construct: Recombinant human JAK3 catalytic domain (amino acids 781-1124; catalog number PV3855); purchased Invitrogen PV3855
assay.overview: JAK3 inhibition assay
Assay type: biochemical
measurement.setup: Illustrative Compounds of the invention (Table IX)
parameter: IC50

Solved entries (count: 3):
- compound: "CCS(=O)(=O)c1ccc(N(C)c2cc(NC(=O)[C@H]3C[C@H]3F)c3ncn(C)c3c2)c(C)c1 [Cpd 27]"
  IC50: "100 to 500 nM"
- compound: "CCc1cc(C#N)ccc1Oc1cc(NC(=O)[C@H]2C[C@H]2F)c2ncn(C)c2c1 [Cpd 10]"
  IC50: "100 to 500 nM"
- compound: "CCc1cc(C#N)cc(F)c1Nc1cc(NC(=O)C2CC2)c2ncn(C)c2c1 [Cpd 2]"
  IC50: "0.1 to 50 nM"

Tested system Recombinant human JAK3 catalytic domain (Homo sapiens); IC50 recorded for CCc1cc(C#N)ncc1Oc1cc(NC(=O)[C@H]2C[C@H]2F)c2ncn(C)c2c1 [Cpd 6] was > 500 nM

Tested system Recombinant human JAK3 catalytic domain (Homo sapiens); IC50 recorded for Cc1cc(C#N)ncc1Oc1cc(NC(=O)C2CC2)c2ncn(C)c2c1 [Cpd 23] was > 500 nM

Tested system Recombinant human JAK3 catalytic domain (Homo sapiens); IC50 recorded for CN(c1cc(NC(=O)[C@H]2C[C@H]2F)c2ncn(C)c2c1)c1ccc(C#N)cc1F [Cpd 15] was > 500 nM

----------
Measured IC50, listed per entry.
system.under.test: Recombinant human TYK2 catalytic domain (Homo sapiens)
Construct: Recombinant human TYK2 catalytic domain (amino acids 871-1187; catalog number 08-147); purchased Carna biosciences 08-147
assay.overview: TYK2 inhibition assay
Assay type: biochemical
measurement.setup: Illustrative Compounds of the invention (Table XI)

- structure: "CCc1cc(S(C)(=O)=O)ncc1N(C)c1cc(NC(=O)C2CC2)c2ncn(C)c2c1"
  system.under.test: "Recombinant human TYK2 catalytic domain (Homo sapiens)"
  IC50: "0.1 to 50 nM"
- structure: "CCc1cc(C(N)=O)ncc1N(C)c1cc(NC(=O)[C@H]2C[C@H]2F)c2ncn(C)c2c1"
  system.under.test: "Recombinant human TYK2 catalytic domain (Homo sapiens)"
  IC50: "0.1 to 50 nM"
- structure: "CCc1cc(C#N)ncc1N(C)c1cc(NC(=O)C2CC2)c2ncn(C)c2c1"
  system.under.test: "Recombinant human TYK2 catalytic domain (Homo sapiens)"
  IC50: "0.1 to 50 nM"
- structure: "CCc1cc(C#N)cc(F)c1N(C)c1cc(NC(=O)C2CC2)c2ncn(C)c2c1"
  system.under.test: "Recombinant human TYK2 catalytic domain (Homo sapiens)"
  IC50: "0.1 to 50 nM"
- structure: "CN(c1cc(NC(=O)[C@H]2C[C@H]2F)c2ncn(C)c2c1)c1ccc(C#N)cc1F"
  system.under.test: "Recombinant human TYK2 catalytic domain (Homo sapiens)"
  IC50: "0.1 to 50 nM"

// moving on: another record for IC50
In plain terms, `CCc1cc(C#N)cc(F)c1N(C)c1cc(NC(=O)OC)c2ncn(C)c2c1` has a documented IC50 of 0.1 to 50 nM
